Where do the numbers come from? From PubChem BioAssay.

Listed here: items and their measured efflux inhibition (fraction of control).
assay: Nile Red efflux blockade in pump-expressing yeast – validation compound set, multiplex, phenotypic, pilot screen (AID 588506);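 also: Nile Red retained in cells so higher fluorescence means more efflux inhibition; 0 = negative control wells and 1 = enniatin B 25 µM full block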; details: S. cerevisiae pump-expressing triplex, Nile Red efflux flow cytometry; at 10 µM; stronger effect = higher value; the pumps come from Candida albicans
The source made the active and inactive calls.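 The calls were made as follows: active = efflux inhibition above 0.42, the validation set average plus 4 SD; inconclusive = no clear call, values can overlap the other calls; inactive = the rest.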

MOLECULE | efflux inhibition (fraction of control)
Cc1ccc(S(=O)(=O)n2ccnc2)cc1C | -0.09 (inactive)
CCCN1CCC(NC(=O)Nc2ccc(Br)cc2)CC1 | -0.23 (inactive)
Cc1c(OCC(F)(F)F)ccnc1CS(=O)c1nc2ccccc2[nH]1 (centres undefined) | 0.04 (inactive)
O=C(CNC(=O)OCc1ccccc1)Oc1cc2oc(=O)cc(-c3ccccc3)c2cc1Cl | -0.09 (inactive)
CC(C)CC(NC(=O)c1cccc(Cl)c1)C(=O)O (centres undefined) | -0.13 (inactive)
CC(C)COCC(CN(Cc1ccccc1)c1ccccc1)N1CCCC1 (centres undefined) | 0.16 (inactive)
Clc1ccc(CCNc2ncnc3nc[nH]c23)cc1 | 0.08 (inactive)
CCC(C)NCCOc1ccc(C(C)(C)c2ccccc2)cc1 (centres undefined) | -0.01 (inactive)
COc1ccc(-c2[nH]ncc2CN(CCO)Cc2cccs2)c(F)c1 | 0.08 (inactive)
COc1ccccc1NC(=O)N1CCc2[nH]c3ccc(Cl)cc3c2C1 | -0.42 (inactive)
Cc1ccccc1N1C(N)=NC(N)=NC1(C)C | -0.28 (inactive)
Cc1ccc2occ(C(=O)c3ccco3)c(=O)c2c1 | -0.31 (inactive)
c1ccc(Cn2ncc3c(Nc4ccccc4)ncnc32)cc1 | 0.08 (inactive)
CCN(CC)CC#CCOC(=O)C(O)(c1ccccc1)C1CCCCC1 (centres undefined) | 0.3 (inactive)
CC(=O)c1cc2c(cc1NC(=O)c1ccco1)OCCO2 | -0.04 (inactive)
O=C1CC[C@@H](CN(Cc2ccccc2)Cc2cn[nH]c2-c2cc3ccccc3o2)N1 | 0.38 (inactive)
CC(=O)N1CCN(c2ccc(NC(=O)/C=C/c3ccccc3)cc2)CC1 | 0.39 (inactive)
CCOc1ccc(N2C(=O)CNC2=S)cc1 | -0.09 (inactive)
CCOC(=O)c1c(O)c2c([nH]c1=O)CCCC2 | 0.01 (inactive)
COc1cc(OC)c(-c2nc3cnccc3n2C)cc1OC | -0.01 (inactive)
CCCc1cc(=O)[nH]c(=S)[nH]1 | 0.44 (active)
C[C@]12CCC3C(CC=C4C[C@@H](O)CC[C@@]43C)C1CCC2[C@]1(C)CCC(=O)O1 (some centres undefined) | 0.48 (active)
COc1cc(CC(=O)NCCc2ccc(S(N)(=O)=O)cc2)cc(OC)c1OC | -0.04 (inactive)
O=C(OCC(O)C(O)COC(=O)c1ccccc1)c1ccccc1 (centres undefined) | 0.17 (inactive)

---

target: Integrin beta-1 (Homo sapiens) + Integrin alpha-4 (Homo sapiens) (UniProt P13612+P05556); assay: alpha4beta1 integrin LIBS antibody binding reduction – U937 cells, HUTS-21 mAb, flow cytometry, validation set, VLA-4 allosteric modulator project, pilot screen (AID 2674); conditions: HUTS-21 LIBS mAb binding, at 6.7 µM, stronger effect = higher value, binding induced by LDV ligand;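 also: antibody binding induced by the VLA-4 ligand LDV present at three times its Kd; 0% = LDV ligand with antibody and no compound and 100% = antibody without LDV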
Sequence (P05556 whole entry, looked up): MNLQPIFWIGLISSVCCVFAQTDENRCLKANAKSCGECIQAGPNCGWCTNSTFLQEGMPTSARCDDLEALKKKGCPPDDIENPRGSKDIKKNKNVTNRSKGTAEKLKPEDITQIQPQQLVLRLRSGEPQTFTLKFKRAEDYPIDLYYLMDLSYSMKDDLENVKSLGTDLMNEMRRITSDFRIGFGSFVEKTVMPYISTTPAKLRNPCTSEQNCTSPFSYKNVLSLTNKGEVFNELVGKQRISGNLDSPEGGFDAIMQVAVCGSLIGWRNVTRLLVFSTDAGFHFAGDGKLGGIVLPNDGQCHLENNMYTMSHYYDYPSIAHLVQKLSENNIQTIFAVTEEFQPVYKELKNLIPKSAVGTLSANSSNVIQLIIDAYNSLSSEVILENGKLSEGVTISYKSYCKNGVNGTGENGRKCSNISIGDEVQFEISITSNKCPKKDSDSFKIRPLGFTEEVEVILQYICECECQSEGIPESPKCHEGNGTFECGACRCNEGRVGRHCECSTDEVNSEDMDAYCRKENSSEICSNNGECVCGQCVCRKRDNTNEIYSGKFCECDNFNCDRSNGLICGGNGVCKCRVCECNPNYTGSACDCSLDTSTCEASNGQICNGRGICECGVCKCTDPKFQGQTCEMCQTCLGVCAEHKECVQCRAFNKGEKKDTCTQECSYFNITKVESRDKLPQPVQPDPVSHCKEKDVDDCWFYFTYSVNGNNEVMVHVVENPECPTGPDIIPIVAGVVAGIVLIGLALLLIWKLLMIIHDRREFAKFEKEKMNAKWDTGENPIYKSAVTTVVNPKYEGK
Sequence (P13612 whole entry, looked up): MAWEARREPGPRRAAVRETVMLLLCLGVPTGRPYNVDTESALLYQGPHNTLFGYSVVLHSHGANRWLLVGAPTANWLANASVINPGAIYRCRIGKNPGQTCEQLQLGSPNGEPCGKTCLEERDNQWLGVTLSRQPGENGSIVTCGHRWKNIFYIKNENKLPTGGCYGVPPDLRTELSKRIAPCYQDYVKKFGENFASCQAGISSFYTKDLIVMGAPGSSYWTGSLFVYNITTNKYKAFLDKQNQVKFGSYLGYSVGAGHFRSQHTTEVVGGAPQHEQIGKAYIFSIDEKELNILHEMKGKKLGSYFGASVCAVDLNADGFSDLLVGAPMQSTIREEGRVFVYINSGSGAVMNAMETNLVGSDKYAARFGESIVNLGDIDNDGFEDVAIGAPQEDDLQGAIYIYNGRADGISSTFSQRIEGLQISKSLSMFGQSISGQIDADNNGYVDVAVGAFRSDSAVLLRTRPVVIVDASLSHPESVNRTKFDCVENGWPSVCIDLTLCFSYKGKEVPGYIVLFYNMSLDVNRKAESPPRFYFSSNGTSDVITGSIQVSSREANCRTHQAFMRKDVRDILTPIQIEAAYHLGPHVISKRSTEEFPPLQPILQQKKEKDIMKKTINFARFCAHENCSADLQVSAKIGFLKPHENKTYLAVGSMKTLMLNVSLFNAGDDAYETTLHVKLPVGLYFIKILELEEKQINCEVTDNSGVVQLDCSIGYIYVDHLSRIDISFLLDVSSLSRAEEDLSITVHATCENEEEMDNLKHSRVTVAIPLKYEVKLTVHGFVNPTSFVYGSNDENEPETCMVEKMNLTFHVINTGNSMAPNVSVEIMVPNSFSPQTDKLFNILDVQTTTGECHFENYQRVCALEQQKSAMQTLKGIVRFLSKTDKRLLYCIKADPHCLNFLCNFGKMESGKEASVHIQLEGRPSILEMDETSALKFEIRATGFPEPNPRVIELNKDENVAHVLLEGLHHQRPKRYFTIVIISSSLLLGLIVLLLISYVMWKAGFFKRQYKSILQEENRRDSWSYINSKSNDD

COMPOUND | TEST_SYSTEM | inhibition / %
Cc1csc(N)n1 | Integrin beta-1 (Homo sapiens) + Integrin alpha-4 (Homo sapiens) (UniProt P13612+P05556) | -7.12
CCNC(=S)N1CCN(CCN2C(=O)c3cccc4cccc(c34)C2=O)CC1 | Integrin beta-1 (Homo sapiens) + Integrin alpha-4 (Homo sapiens) (UniProt P13612+P05556) | -26.6
O=C(O)COc1ccc2occ(C(=O)c3ccccc3)c2c1 | Integrin beta-1 (Homo sapiens) + Integrin alpha-4 (Homo sapiens) (UniProt P13612+P05556) | 15.1
CC(=O)Nc1ccc(CN2CCN(C3CCCCC3)C(CCO)C2)cc1 (centres undefined) | Integrin beta-1 (Homo sapiens) + Integrin alpha-4 (Homo sapiens) (UniProt P13612+P05556) | -0.27
COc1ccc(NC(=O)CC(c2ccccc2)c2ccco2)cc1 (centres undefined) | Integrin beta-1 (Homo sapiens) + Integrin alpha-4 (Homo sapiens) (UniProt P13612+P05556) | -15
CC(C)C(=O)Nc1c(O)c2ccccc2[nH]c1=O | Integrin beta-1 (Homo sapiens) + Integrin alpha-4 (Homo sapiens) (UniProt P13612+P05556) | 6.4
CC(C(=O)O)c1ccc(-c2ccccc2)c(F)c1 (centres undefined) | Integrin beta-1 (Homo sapiens) + Integrin alpha-4 (Homo sapiens) (UniProt P13612+P05556) | 1.62
COc1ccc(-c2cc(=O)oc3cc(OC(C)C(=O)O)ccc23)cc1 (centres undefined) | Integrin beta-1 (Homo sapiens) + Integrin alpha-4 (Homo sapiens) (UniProt P13612+P05556) | 11.7
Cc1nc(NC(CC(C)C)C(=O)O)c2nc(C)oc2n1 (centres undefined) | Integrin beta-1 (Homo sapiens) + Integrin alpha-4 (Homo sapiens) (UniProt P13612+P05556) | -5.89
Cc1nc(NCc2ccco2)c(C#N)c2c1COC(C)(C)C2 | Integrin beta-1 (Homo sapiens) + Integrin alpha-4 (Homo sapiens) (UniProt P13612+P05556) | -9.13
CC12CCC(C(=O)N3CCc4ccccc43)(CC1=O)C2(C)C (centres undefined) | Integrin beta-1 (Homo sapiens) + Integrin alpha-4 (Homo sapiens) (UniProt P13612+P05556) | -2.43
C[C@@H]1C[C@H](Nc2ccccc2)c2ccccc2N1C(=O)c1cccnc1 | Integrin beta-1 (Homo sapiens) + Integrin alpha-4 (Homo sapiens) (UniProt P13612+P05556) | 3.67
NS(=O)(=O)c1cc2c(cc1Cl)NC(C1C[C@H]3C=C[C@@H]1C3)NS2(=O)=O (some centres undefined) | Integrin beta-1 (Homo sapiens) + Integrin alpha-4 (Homo sapiens) (UniProt P13612+P05556) | -19.9
O=C1CC(c2ccc(OCCCCCOc3ccc(C4CC(=O)NC4=O)cc3)cc2)C(=O)N1 (centres undefined) | Integrin beta-1 (Homo sapiens) + Integrin alpha-4 (Homo sapiens) (UniProt P13612+P05556) | 15.1
COc1ccc(-c2[nH]ncc2CN(C)C(C)c2ccon2)c(OC)c1 (centres undefined) | Integrin beta-1 (Homo sapiens) + Integrin alpha-4 (Homo sapiens) (UniProt P13612+P05556) | 10.3
CC1(C)CC(CC(=O)O)(c2ccc(Cl)cc2)CCO1 (centres undefined) | Integrin beta-1 (Homo sapiens) + Integrin alpha-4 (Homo sapiens) (UniProt P13612+P05556) | -0.33
COc1ccc2[nH]cc(C3N4CC5(C)CN3CC(C)(C4)C5=O)c2c1 (centres undefined) | Integrin beta-1 (Homo sapiens) + Integrin alpha-4 (Homo sapiens) (UniProt P13612+P05556) | 9.63
COC(=O)c1[nH]c(=O)c2ccccc2c1O | Integrin beta-1 (Homo sapiens) + Integrin alpha-4 (Homo sapiens) (UniProt P13612+P05556) | 0.94
COc1ccc2c(c1O)Cc1ccccc1C2=O | Integrin beta-1 (Homo sapiens) + Integrin alpha-4 (Homo sapiens) (UniProt P13612+P05556) | -13.9
COCC(C)NC(=O)c1ccc(CN2CCc3ccccc3C2)cc1 (centres undefined) | Integrin beta-1 (Homo sapiens) + Integrin alpha-4 (Homo sapiens) (UniProt P13612+P05556) | -12.7
CC(=O)[C@H]1CC[C@H]2[C@@H]3CCC4=CC(=O)CC[C@]4(C)[C@H]3[C@H](O)C[C@]12C | Integrin beta-1 (Homo sapiens) + Integrin alpha-4 (Homo sapiens) (UniProt P13612+P05556) | -20.7
COCCOC(=O)C1=C(C)NC(C)=C(C(=O)OC(C)C)C1c1cccc([N+](=O)[O-])c1 (centres undefined) | Integrin beta-1 (Homo sapiens) + Integrin alpha-4 (Homo sapiens) (UniProt P13612+P05556) | 4.73
Cc1ccc2nc(NC3=NC(CC(=O)O)C(=O)N3)nc(C)c2c1 (centres undefined) | Integrin beta-1 (Homo sapiens) + Integrin alpha-4 (Homo sapiens) (UniProt P13612+P05556) | 0.58
O=c1[nH]c(=O)n(C2CCCO2)cc1F (centres undefined) | Integrin beta-1 (Homo sapiens) + Integrin alpha-4 (Homo sapiens) (UniProt P13612+P05556) | -17.8
